# System: MCF7
# run description: Antiproliferative activity against human MCF7 cells assessed as cell viability after 48 hrs MTT assay
# Assay type: functional, cell-based
# condition context: MCF7, 48 h
metric name: IC50 (µM)

(a) CCc1ccccc1NS(=O)(=O)c1ccc(NC2=C(Cl)C(=O)c3ccccc3C2=O)cc1
(b) CC(C)c1ccccc1NS(=O)(=O)c1ccc(NC2=C(Cl)C(=O)c3ccccc3C2=O)cc1
(c) O=C(Nc1ccncc1)c1ccc(NC2=C(Cl)C(=O)c3ccccc3C2=O)cc1
Provide the items ranked by increasing IC50. Write the labels, ordered according to the request. a, b, c
(a: 2.43 µM, b: 5.38 µM, c: 20.8 µM)
